B1: SNAP91 (parent)
chain: FAAPSPATTASPAKVDSSGVIDLF

- Variants of: B1
- measurement-protocol: protein stability index of a GFP-peptide fusion (GPS, HEK-293T) (PSI 1-6); higher = more stable;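 further: lentivirally expressed fusions sorted by FACS into six bins by GFP to DsRed ratio, PSI derived from sequencing read proportions per bin multiplied by bin number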
- condition-info: c terminus: a fixed tail appended
Note: every record was labeled by where its protein stability index sits among low = under 2, middle = from 2 up to 3, high = 3 and over

Please indicate the class for S17I based on its protein stability index.
low

Please let me know in which category the item F24A belongs.
high

Into which bin does this variant go? S11G
middle

Sort into band: S18F
low

Into which bin does this variant go? G19W
low

Hi there! Could you help me figure out the category for V20R please?
middle

Any idea which band G19N is in?
middle

Lab log: F24H — assign protein stability index category
high

For the record V20H , report the class its protein stability index corresponds to.
middle

Band for P4V ?
middle

# bin label for V15T
middle

Category of F24D , please.
high

Entry A2G belongs to which category?
high

# bin lookup: classify A7K by its protein stability index
middle

Which bin, given its protein stability index, does A10I occupy?
middle

# bin lookup: classify A7N by its protein stability index
middle

Which bin, given its protein stability index, does S5G occupy?
middle

State the class of the variant shown: P4L
low

Classify this variant: L23S
high

Which band does A3Q fall in?
middle

Class for A10Q ?
middle

Which band does P4C fall in?
low

Band of I21H ?
middle

Any idea which band D22M is in?
middle

Kindly state the category for this variant: A7V
middle

Lab note: which band did S5M land in?
middle

// bin(item) where item = A2L
middle

Could you place A7H in its proper category? Many thanks.
middle

Input D22L ; output its category
middle

Which bin, given its protein stability index, does S18V occupy?
middle

In plain terms, what class is K14V ?
middle

Hello team, could you let me know which band the following variant falls into: K14I
middle

Hello team, could you let me know which band the following variant falls into: T8H
high

Lab log: V20S — assign protein stability index category
middle

Sort S18K into one of the categories.
middle

For this variant, which bin applies? T8K
middle

Which class does A7L fall in?
low

Any idea which band P12M is in?
middle
